Cited source for all entries: patent US20120135923A1

Molecular target: hMC1-R (Homo sapiens, UniProt Q01726)
Construct: expressed in transfected cells; host or cells: CHO-K1
Sequence (Q01726 whole entry): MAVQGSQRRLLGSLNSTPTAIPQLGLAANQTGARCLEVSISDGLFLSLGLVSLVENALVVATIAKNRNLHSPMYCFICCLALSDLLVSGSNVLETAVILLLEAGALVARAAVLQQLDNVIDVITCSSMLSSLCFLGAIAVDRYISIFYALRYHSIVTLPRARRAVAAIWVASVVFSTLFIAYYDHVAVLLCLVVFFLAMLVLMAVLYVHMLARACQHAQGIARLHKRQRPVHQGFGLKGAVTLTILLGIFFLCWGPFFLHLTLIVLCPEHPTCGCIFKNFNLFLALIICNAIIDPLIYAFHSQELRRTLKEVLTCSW
Assay: Radioligand binding assay, [125I]-NDP-α-MSH competition, CHO-K1 membranes
Details: Table 5; read-out: Ki hMC1-R
Bridge positions count the residues as written; N and C are the ends. Square brackets hold non-standard residues; d marks the D form. Peptide text beside a SMILES is read from it. 1Nal = N[C@@H](Cc1cccc2ccccc12)C(=O)O; d2Nal = N[C@H](Cc1ccc2ccccc2c1)C(=O)O; Nle = CCCC[C@H](N)C(=O)O
Property: pKi
Conceptually, pKi converts a concentration in mol/L into minus its log10.

compound="CCCC[C@H](NC(C)=O)C(=O)N[C@H]1CSSC[C@@H](C(N)=O)NC(=O)[C@H](Cc2cccc3ccccc23)NC(=O)[C@H](CCCNC(=N)N)NC(=O)[C@@H](Cc2ccc3ccccc3c2)NC(=O)[C@H](Cc2c[nH]cn2)NC(=O)[C@@H](C)NC1=O (Ac-[Nle]C[dA]H[d2Nal]R[1Nal]C-NH2; disulfide 2-8)" property=pKi value_measured=6.94

Consider the additional compound presented here.
// query Which pKi reading was recorded for the compound CC(=O)N[C@@H](CC1CCCCC1)C(=O)N[C@H]1CC(=O)NCCCC[C@@H](C(N)=O)NC(=O)CCCNC(=O)[C@H](Cc2c[nH]c3ccccc23)NC(=O)[C@H](CCCNC(=N)N)NC(=O)[C@@H](Cc2ccc3ccccc3c2)NC(=O)[C@H](Cc2c[nH]cn2)NC1=O ?
// result 9.24
